biological target: T1, CD3 epsilon homodimer protein (UniProt P07766 23-126); experiment: SPR Biacore T200, CD3e homodimer on chip, vs unaltered GLS3000 antibody
T1 construct: also called CD3 (CD3 epsilon)
T1 sequence (P07766 23-126): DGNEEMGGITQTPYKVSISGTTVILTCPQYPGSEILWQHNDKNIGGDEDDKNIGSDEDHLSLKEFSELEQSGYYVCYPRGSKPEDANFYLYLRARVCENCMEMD
measurement-kind: ratio of amounts bound (Z=Y/X)
Lab note: record the figure alone, no unit after it.

{"binder": "GLS3000 R29D (antibody, name in Kabat numbering, V domains shown, one-arm IgG as m2) VH: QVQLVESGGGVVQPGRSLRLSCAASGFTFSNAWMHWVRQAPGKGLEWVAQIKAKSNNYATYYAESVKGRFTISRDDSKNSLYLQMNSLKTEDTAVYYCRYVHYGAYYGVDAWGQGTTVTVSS VL: DIVMTQSPLSLPVTPGEPASISCRSSQSLVHSNDNTYLHWYQQKPGQAPRLLIYKVSNRFSGVPDRFSGSGSGTDFTLKISRVEAEDVGVYYCGQGTQVPYTFGQGTKLEIK", "ratio of amounts bound (Z=Y/X)": 0.41}
{"binder": "GLS3000 N53M (antibody, name in Kabat numbering, V domains shown, one-arm IgG as m2) VH: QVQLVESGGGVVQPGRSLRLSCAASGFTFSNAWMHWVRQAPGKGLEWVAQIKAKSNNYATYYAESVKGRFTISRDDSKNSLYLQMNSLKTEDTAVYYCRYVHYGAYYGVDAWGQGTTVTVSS VL: DIVMTQSPLSLPVTPGEPASISCRSSQSLVHSNRNTYLHWYQQKPGQAPRLLIYKVSMRFSGVPDRFSGSGSGTDFTLKISRVEAEDVGVYYCGQGTQVPYTFGQGTKLEIK", "ratio of amounts bound (Z=Y/X)": 0.62}

# ratio of amounts bound (Z=Y/X) lookup, item GLS3000 S26D (antibody, name in Kabat numbering, V domains shown, one-arm IgG as m2) VH: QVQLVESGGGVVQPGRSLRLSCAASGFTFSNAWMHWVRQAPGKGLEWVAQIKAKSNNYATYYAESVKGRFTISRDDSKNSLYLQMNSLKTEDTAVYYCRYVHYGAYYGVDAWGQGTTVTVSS VL: DIVMTQSPLSLPVTPGEPASISCRSDQSLVHSNRNTYLHWYQQKPGQAPRLLIYKVSNRFSGVPDRFSGSGSGTDFTLKISRVEAEDVGVYYCGQGTQVPYTFGQGTKLEIK
0.86
